# Read-out: Interferon-gamma inducible Protein 10 (IP10), CXCL10 (gene 3627)
# ASSAY PROTOCOL: BSK_hDFCGF_IP10: BioMAP Diversity Plus: hDFCGF Assay for Interferon-gamma inducible Protein 10 (IP10) Biomarker Activity (AID 2283053)
# EXPERIMENTAL CONTEXT: primary human foreskin fibroblasts; actives raise or lower the signal
Calls of active or inactive are those of the source. How the source made its calls: active means hit-call score of the fitted dose curve at least 0.9, where 1 is the maximum; inactive means score below 0.9.
Bench note: report the call from active, inactive

Task: Called result for O=C1OC2(c3ccc(O)cc3Oc3cc(O)ccc32)c2ccccc21
Result: inactive

Task: Status in this test for O=S1(=O)CC(Cl)(Cl)C(Cl)(Cl)C1 ?
Result: active

Task: So what was the verdict on CC1=CC(C)C(C=O)C(C)C1 (stereo unspecified) (tested in a mixture with another compound) in this test?
Result: inactive

Task: Please let me know the test result on file for O=C(O)C(F)(F)C(F)(F)C(F)(F)C(F)(F)C(F)(F)C(F)(F)C(F)(F)C(F)F .
Result: inactive

Task: Please share the test call associated with CCCCOCCOCCO .
Result: inactive

Task: For this molecule, state the assay outcome: CC(=O)c1ccc(C)cc1
Result: inactive
